I'd appreciate it if you could supply Kd values for the items below.
Biological target: Ubiquitin-conjugating enzyme E2 N (Homo sapiens)
Experiment: UBE2N binders by NMR, biophysical, purified protein (AID 1552)
Conditions: NMR binding to purified UBE2N
Calls of active or inactive are those of the source. How the calls were made is not given here.

Sample answers from the record:
NC(=O)c1ccc(-c2csnn2)cc1    > 4 mM (inactive)
Clc1ccccc1OCc1nc(-c2ccccn2)no1    > 4 mM (inactive)
CCn1c2ccccc2c2nn(C)c(=N)nc21    > 4 mM (inactive)
COc1ccc(-c2cc(=O)c3ccccc3o2)cc1    > 4 mM (inactive)

Record Kd for all entries; do not skip any.
1. CN(C)C(=S)Nc1ccc([N+](=O)[O-])cc1
2. O=C(NCCO)c1cc2ccccc2c(=O)s1
3. Cc1nc2ccccc2c(=O)n1/N=C/c1ccco1

Output:
> 4 mM (inactive)
> 4 mM (inactive)
> 4 mM (inactive)

---

Molecular target: Ubiquitin-conjugating enzyme E2 N (Homo sapiens)
Test: UBE2N binders by NMR, biophysical, purified protein (AID 1552)
Conditions: NMR binding to purified UBE2N
Active and inactive are the calls of the source. No rule for the calls is given here.
QUANTITY: Kd

Examples with answers:
COC(=O)c1[nH]c2ccccc2c1C(=O)OC    > 4 mM (inactive)
CC(=O)O[C@H]1CCC2(C)C3=C(CCC2C1(C)C)[C@]1(C)CCC(C(C)CCC=C(C)C)[C@@]1(C)CC3 (stereo partly specified)    > 4 mM (inactive)
COc1ncccc1N    > 4 mM (inactive)
COc1ccc(C2(C)CC(=O)NC2=O)cc1 (stereo unspecified)    > 4 mM (inactive)
O=C(O)C1CCN(c2ccc(C(F)(F)F)cn2)CC1    > 4 mM (inactive)

Fill in Kd for each of the 3 compounds listed.
1. O=C(NCc1cccs1)c1ccc2c(c1)OCCO2
2. S=c1[nH]ncn1-c1ccccc1
3. Nc1ccc(CN2CCS(=O)(=O)CC2)cc1

Output:
["> 4 mM (inactive)", "> 4 mM (inactive)", "> 4 mM (inactive)"]

---

Molecular target: UniProt P61088
Sequence (P61088 whole entry, looked up): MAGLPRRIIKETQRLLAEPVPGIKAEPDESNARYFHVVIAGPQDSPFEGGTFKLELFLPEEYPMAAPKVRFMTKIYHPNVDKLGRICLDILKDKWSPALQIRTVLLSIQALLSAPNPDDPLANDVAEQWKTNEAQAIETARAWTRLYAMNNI
Experiment: UBE2N binders by NMR, biophysical, purified protein (AID 1552)
Conditions: NMR binding to purified UBE2N
Activity calls are given as the source filed them. How the calls were made is not given here.
QUANTITY: Kd

CC(=O)O[C@H]1CC[C@@]2(C)C(C[C@@H](OC(C)=O)[C@@]3(C)C4=CC(=O)O[C@@H](c5ccoc5)[C@]4(C)CCC23)C1(C)C (some centres not stated)    > 4 mM (inactive)

Dear colleague, could you send me Kd for each of the items below? Thanks.
1. COc1ccc2[nH]c(O)c(NC(C)=O)c2c1
2. O=C1CC(c2c[nH]c3ccccc23)C(=O)N1 (configuration not stated)
3. O=C(NCc1ccccc1Cl)c1cnn2cccnc12
4. Nc1nc2ccccc2n1CCN1CCCC1
5. O=P1(O)c2ccccc2Nc2ccccc21
6. CCn1cnc2cc(NCc3ccncc3)ccc21
7. CC1CC[C@]2(NC1)O[C@H]1CC3C4CC[C@H]5C[C@@H](O)CC[C@]5(C)C4CC[C@]3(C)[C@H]1[C@@H]2C (some centres not stated)

Output:
> 4 mM (inactive)
> 4 mM (inactive)
> 4 mM (inactive)
> 4 mM (inactive)
> 4 mM (inactive)
> 4 mM (inactive)
> 4 mM (inactive)

Give Kd for each listed item.
1. O=C1CC(=O)N(c2cccc(Cl)c2)N1
2. O=C(O)C(CO)c1ccccc1 (configuration not stated)
3. CC1SC(=NC(=O)c2ccncc2)NC1=O (configuration not stated)
4. NC(=O)Nc1cccc(C(F)(F)F)c1

Output:
["> 4 mM (inactive)", "> 4 mM (inactive)", "> 4 mM (inactive)", "> 4 mM (inactive)"]

---

Biological target: UniProt:P61088
Assay: UBE2N binders by NMR, biophysical, purified protein (AID 1552)
Conditions: NMR binding to purified UBE2N
The source made the active and inactive calls. How the calls were made is not given here.
So I've got a bunch of compounds here, and I need their Kd values.

CC(=O)NC(=S)Nc1ccccc1C(N)=O    > 4 mM (inactive)
CC(=O)O[C@@H]1C=C[C@@]2(C)C(C[C@@H](OC(C)=O)[C@@]3(C)C4=CC(=O)O[C@@H](c5ccoc5)[C@]4(C)CCC23)C1(C)C (stereo partly specified)    > 4 mM (inactive)
Cc1noc(C)c1C(=O)Nc1ccccn1    > 4 mM (inactive)
CC(=O)c1nnc2cc(C)nn2c1C    > 4 mM (inactive)

Batch request: Kd per item, same order as input.
1. CSc1ccccc1NC(=O)c1cccnc1
2. COC[C@]12CN(C=O)C3[C@@H]4[C@H](OC)C1[C@]3(C1CC3(O)C(OC)C(O)C4(OC(C)=O)C1C3OC(=O)c1ccccc1)[C@@H](OC)C[C@H]2O (stereo partly specified)
3. O=c1c(O)cccc2cc(O)c(O)c(O)c12
4. Cc1nc2[nH]onc2c2nccc(=O)c12
5. Cn1ncc(SCc2ccco2)c(Cl)c1=O

Output:
1: > 4 mM (inactive); 2: > 4 mM (inactive); 3: > 4 mM (inactive); 4: > 4 mM (inactive); 5: > 4 mM (inactive)

Please go through the list and note Kd for each compound.
1. O=C(O)C1Cc2ccccc2O1 (stereo unspecified)
2. O=S(=O)(O)c1nc2ccccc2[nH]1

Output:
["> 4 mM (inactive)", "> 4 mM (inactive)"]

---

Biological target: UniProtKB P61088
Assay: UBE2N binders by NMR, biophysical, purified protein (AID 1552)
Conditions: NMR binding to purified UBE2N
Activity calls are given as the source filed them. The rule behind the calls is not given here.
Would you mind telling me the reported Kd of each entry?

COc1ccc(-c2nc3nc(C)cc(C)n3n2)cc1    > 4 mM (inactive)
CN1CCN(C(=O)c2cc(-c3ccccc3)on2)CC1    > 4 mM (inactive)
CC(=O)Nc1ccc(NC2SC(=O)NC2=O)cc1 (configuration not stated)    > 4 mM (inactive)
Cc1nccc(-c2cccc(N)c2)n1    > 4 mM (inactive)

Hi there! I need Kd for each item below, if you can.
1. CNC(=O)c1ccccc1-c1ccccc1
2. CCCCCCCCCCCCCCC(C(=O)OC)C(O)(CC(=O)OC)C(=O)OC (configuration not stated)
3. CCSc1nc(=S)n(CC)c(C)c1C(C)=O
4. Cc1cc(/C=N/O)nc(=O)[nH]1
5. CC(C)=CCc1c2c(c3occ(-c4ccc(O)c(O)c4)c(=O)c3c1O)C=CC(C)(C)O2

Output:
1. > 4 mM (inactive)
2. > 4 mM (inactive)
3. > 4 mM (inactive)
4. > 4 mM (inactive)
5. > 4 mM (inactive)

Record Kd for all entries; do not skip any.
1. CC(C)=CCc1c2c(c3occ(-c4ccc(O)cc4)c(=O)c3c1O)C=CC(C)(C)O2
2. CC(Sc1ncn[nH]1)C(=O)O (configuration not stated)
3. CCCCN1C(=O)N(C)C2NC(=O)NC21 (configuration not stated)

Output:
["> 4 mM (inactive)", "> 4 mM (inactive)", "> 4 mM (inactive)"]

---

Molecular target: Ubiquitin-conjugating enzyme E2 N (Homo sapiens)
Assay: UBE2N binders by NMR, biophysical, purified protein (AID 1552)
Settings: NMR binding to purified UBE2N
Activity calls are given as the source filed them. The rule behind the calls is not given here.
QUANTITY: Kd

Worked examples, 6 molecules total:
O=C(O[C@@H]1Cc2c(O)cc(O)cc2O[C@@H]1c1cc(O)c(O)c(O)c1-c1c([C@H]2Oc3cc(O)cc(O)c3C[C@H]2O)cc(O)c(O)c1O)c1cc(O)c(O)c(O)c1    > 4 mM (inactive)
CC1C[C@H]2CC(=O)[C@H]3CCCN4CCC[C@H]2[C@]34C1 (stereo partly drawn)    > 4 mM (inactive)
O=c1[nH]cnc2c1nnn2Cc1ccccc1    > 4 mM (inactive)
NC(=O)c1ccc(NC(=O)c2cccnc2)cc1    > 4 mM (inactive)
Cn1nnc2cc(CN)ccc21    > 4 mM (inactive)
COc1ccc(C(C)=O)c(O)c1    > 4 mM (inactive)

Go through the list and state Kd for each entry.
1. COc1cccc(-c2csc(NC(C)=O)n2)c1
2. Nc1ncnc2c1ncn2[C@@H]1O[C@H](CO)[C@@H](O)[C@H]1O

Output:
1. > 4 mM (inactive)
2. > 4 mM (inactive)

---

Target: Ubiquitin-conjugating enzyme E2 N (Homo sapiens)
Assay: UBE2N binders by NMR, biophysical, purified protein (AID 1552)
Conditions: NMR binding to purified UBE2N
Active and inactive are the calls of the source. No rule for the calls is given here.
QUANTITY: Kd

A selection of reference data follows.
O=C(NC1=NCCS1)c1ccc(Cl)s1    > 4 mM (inactive)
O=c1c(O)c(-c2ccc(O)cc2O)oc2cc(O)cc(O)c12    > 4 mM (inactive)
CC(=O)c1cccc(NC2=NCC(C)(C)S2)c1    > 4 mM (inactive)

Hi there! I need Kd for each item below, if you can.
1. CN1CCN(S(=O)(=O)c2ccc(=O)[nH]c2)CC1
2. C[n+]1ccn(C/C(N)=N/O)c1
3. Cc1cc(C(=O)N2CCN(c3ncccn3)CC2)c(C)o1

Output:
1: > 4 mM (inactive); 2: > 4 mM (inactive); 3: > 4 mM (inactive)

Provide reported Kd for each item, in the same order as listed.
1. COc1ccc2c(c1OC)C(=O)O[C@H]2[C@H]1c2cc3c(cc2CCN1C)OCO3
2. CC1(C)CN=C(Nc2nc3ccccc3s2)S1
3. COc1ccc(-c2coc3c(OC)c(OC)cc(O)c3c2=O)cc1

Output:
1: > 4 mM (inactive); 2: > 4 mM (inactive); 3: > 4 mM (inactive)

Working through the 6 molecules below one at a time, give Kd for each.
1. OCc1sccc1-n1cccc1
2. O=C(NC1=NCCS1)c1csc2ccccc12
3. CNC(=O)C(=O)NCc1ccc(C)cc1
4. O=CN1CCN(C(=O)c2ccccc2Cl)CC1
5. O=C(Nc1ccc2c(c1)OCO2)c1c(F)cccc1F
6. NC(=O)CN1CC(c2ccccc2)CC1=O (configuration not stated)

Output:
["> 4 mM (inactive)", "> 4 mM (inactive)", "> 4 mM (inactive)", "> 4 mM (inactive)", "> 4 mM (inactive)", "> 4 mM (inactive)"]

Each molecule below has a recorded value; state its Kd.
1. NC(=O)NC1NC(=O)NC1=O (configuration not stated)
2. O=C1CCC(C(=O)NCc2cccnc2)N1 (configuration not stated)
3. O=c1c2ccccc2nc2n1CCCCN2
4. C=C(C)CSc1nc2nc(C)cc(C)n2n1
5. Cc1cc(O)c2c(c1)C(=O)c1cccc(O)c1C2=O

Output:
["> 4 mM (inactive)", "> 4 mM (inactive)", "> 4 mM (inactive)", "> 4 mM (inactive)", "> 4 mM (inactive)"]

Kindly give each listed record's Kd.
1. Nc1ccc(-c2csnn2)cc1
2. CSc1ccn(CCC(=O)O)c(=O)n1
3. CC(=O)NC(=S)Nc1ccccc1C
4. O=C1CNC(=O)N1Cc1ccc(F)cc1
5. O=C1C2CCCCC2C(=O)N1c1nccs1 (configuration not stated)
6. CC(=O)O[C@@H]1CC2C(C)(C)C(=O)C3OC3[C@]2(C)C2CC[C@@]3(C)[C@H](c4ccoc4)OC(=O)C4OC43[C@@]21C (some centres not stated)
7. Cc1cc([N+](=O)[O-])cc[n+]1[O-]

Output:
1: > 4 mM (inactive); 2: > 4 mM (inactive); 3: > 4 mM (inactive); 4: > 4 mM (inactive); 5: > 4 mM (inactive); 6: > 4 mM (inactive); 7: > 4 mM (inactive)
